assay: Quantitative highthroughput screen to assess conditional lethalithy of SEM cells grown in RPMI1640 with dialyzed fetal bovine serum (RPMI+ds) (AID 1963884); conditions: SEM B-ALL cells, RPMI+dialyzed FBS, CellTiter-Glo viability, 48 h; series mostly up to 45.8 µM; further: nearly all actives have a fitted effect of over 35% in size; further: potency means the concentration at half of the fitted maximal effect
Records with an inconclusive call do not appear. The source made the active and inactive calls. The call rests on the fitted dose curve; in most records, active means well fitted cell-killing curve with a large enough effect; inconclusive means small, poorly fitted or top-dose-only effect, or effect the other way; inactive means no such curve, though single readings can be large or run the other way.
experimental-readout: Potency

# example entries with known answers
{"columns": ["molecule", "Potency"],
 "data": [
  ["CC(C)(O)C(=O)Nc1ccc([N+](=O)[O-])c(C(F)(F)F)c1", "inactive"],
  ["COC1(CS(=O)c2ccccc2)CCN(CCc2c[nH]c3ccc(F)cc23)CC1 (stereo not given)", "inactive"],
  ["CC(C)[C@H]1C(=O)N[C@H](CO)Cc2c[nH]c3cccc(c23)N1C", "inactive"],
  ["C[C@@]12OC(=O)[C@]1([C@@H](O)[C@@H]1C=CCCC1)NC(=O)[C@H]2CCCl", "46.9 nM (active)"]
]}

As a next step, examine the molecule that follows.
Entry Oc1ccc2c3c1O[C@H]1c4[nH]c5c(c4C[C@@]4(O)[C@@H](C2)N(CC2CC2)CC[C@]314)C[C@@]1(O)[C@H]2Cc3ccc(O)c4c3[C@@]1(CCN2CC1CC1)[C@H]5O4 ; Potency = inactive

###

experiment: Quantitative highthroughput screen to assess conditional lethalithy of P12 Ichikawa cells grown in RPMI1640 with dialyzed fetal bovine serum (RPMI+ds) (AID 1963880); details: ATP luminescence, 48 h; P12-Ichikawa viability; series mostly up to 45.8 µM; further: nearly all actives have a fitted effect of over 35% in size
Inconclusive results are not listed. Activity calls are given as the source filed them. Calls come from the whole dose curve; as a rule, active = well fitted cell-killing curve with a large enough effect; inconclusive = small, poorly fitted or top-dose-only effect; inactive = flat fitted curve, though single readings scatter.
Reply using exactly one outcome from active, inactive

Past entries and their recorded results:
{"columns": ["molecule", "answer-label"],
 "data": [
  ["CC(C)(C)c1cc(C=C(C#N)C#N)cc(Br)c1O", "inactive"],
  ["CN1CCN(c2ccc([N+](=O)[O-])c3no[n+]([O-])c23)CC1", "inactive"],
  ["O=C(N[C@H]1CN2CCC1CC2)c1ccc(Cl)cc1", "inactive"],
  ["CC(NC(C)(C)C)C(=O)c1cccc(Cl)c1 (stereo not given)", "inactive"],
  ["CSCC[C@@H](NC(=O)[C@@H](Cc1ccccc1)NC(=O)CNC(=O)CNC(=O)[C@@H](N)Cc1ccc(O)cc1)C(=O)O", "inactive"],
  ["C[C@]12Cc3cn[nH]c3C[C@@H]1CC[C@@H]1[C@H]2CC[C@@]2(C)[C@H]1CC[C@]2(C)O", "inactive"],
  ["CCOc1ccccc1-n1c(C(C)N2CCN(C(=O)COc3ccc(Cl)cc3)CC2)nc2ccccc2c1=O (stereo not given)", "active"],
  ["CCCC(C)(COC(N)=O)COC(=O)NC(C)C (stereo not given)", "inactive"]
]}

Called result for O=C(Oc1ccc([N+](=O)[O-])cc1)N1CCN(Cc2cccc(Oc3ccccc3)c2)CC1 inactive

Called result for CCC1(c2ccc(N)cc2)CCC(=O)NC1=O (stereo not given) inactive

###

assay: Viability qHTS for spleen associated tyrosine kinase inhibitor (SYKi) naive MV4-11 cells (AID 1963823); conditions: MV4-11 AML viability, CellTiter-Glo luminescence, 72 h; series mostly up to 45 µM; further: nearly all actives have a fitted effect of over 40% in size
Results filed as inconclusive are left out. Calls of active or inactive are those of the source. The call rests on the fitted dose curve; in most records, active means well fitted cell-killing curve with a large enough effect; inconclusive means small, poorly fitted or top-dose-only effect, or effect the other way; inactive means no such curve, though single readings can be large or run the other way.
Reply using exactly one outcome from active, inactive

{"columns": ["compound", "answer-label"],
 "data": [
  ["O=C1N[C@@H](Cc2ccccc2)CN2CCCC[C@@H]12", "inactive"],
  ["CC(C)[C@H]1OC(=O)[C@H](Cc2ccccc2)N(C)C(=O)[C@@H](C(C)C)OC(=O)[C@H](Cc2ccccc2)N(C)C(=O)[C@@H](C(C)C)OC(=O)[C@H](Cc2ccccc2)N(C)C1=O", "active"],
  ["C=C(C)[C@@H]1[C@H]2OC(=O)[C@H]1[C@]1(O)C[C@H]3O[C@]34C(=O)O[C@H]2[C@]14C", "inactive"],
  ["CCC(C)C(C)(COC(N)=O)COC(N)=O (stereo unspecified)", "inactive"],
  ["C=C1[C@@H](C)[C@H]2[C@H](Cc3ccccc3)NC(=O)[C@]23[C@H](OC(C)=O)/C=C/[C@](C)(O)C(=O)[C@@H](C)C/C=C/[C@H]3[C@@H]1O", "active"]
]}

Called result for CC1N=C(N)OC1c1ccccc1 (stereo unspecified) inactive

Called result for CC(=O)OC1CC(O)C(C)(C)C2CC(OC(C)=O)C3(C)C(CCC4(C)C(c5ccoc5)C(=O)C5OC543)C12C (stereo unspecified) inactive

Called result for C[C@@H]1O[C@@H](O[C@@H]2C=C3CC[C@@H]4[C@H](CC[C@]5(C)[C@@H](c6ccc(=O)oc6)CC[C@]45O)[C@@]3(C)CC2)[C@H](O)[C@H](O)[C@H]1O active

Called result for COC1CC(O[C@H]2CC[C@]3(C=O)C4CC[C@]5(C)[C@@H](C6=CC(=O)OC6)CC[C@]5(O)[C@@H]4CC[C@@H]3C2)OC(C)C1O[C@@H]1O[C@H](CO)[C@@H](O[C@@H]2O[C@H](CO)[C@@H](O)[C@H](O)[C@H]2O)[C@H](O)[C@H]1O (stereo partly specified) active

Called result for Oc1ccc2[nH]cc(CCCCN3CC=C(c4ccccc4)CC3)c2c1 active

Called result for CN1C2CCC1CC(OC(=O)N1Cc3ccccc3NC1=O)C2 (stereo unspecified) inactive

Called result for C[C@@H]1CC[C@@]2(OC1)O[C@H]1C[C@H]3[C@@H]4CC=C5C[C@@H](O[C@@H]6O[C@H](CO)[C@@H](O[C@@H]7O[C@@H](C)[C@H](O)[C@@H](O)[C@H]7O)[C@H](O)[C@H]6O[C@@H]6O[C@@H](C)[C@H](O)[C@@H](O)[C@H]6O)CC[C@]5(C)[C@H]4CC[C@]3(C)[C@H]1[C@@H]2C active

Called result for Clc1cccc(N2CCNCC2)c1 inactive

###

biological target: Cytochrome P450 3A7 (Homo sapiens); experiment: Cytochrome P450 family 3 subfamily A member 7 (CYP3A7) small molecule antagonists: luciferase biochemical qHTS assay (AID 1963596); conditions: P450-Glo CYP3A7 enzyme luminescence, 1 h; series mostly up to 57.4 µM; further: nearly all actives have a fitted effect of over 40% in size
Records with an inconclusive call do not appear. The source made the active and inactive calls. Calls follow the shape of the dose curve; as a rule, active = well fitted inhibition curve with a large enough effect; inconclusive = small, poorly fitted or top-dose-only effect; inactive = no such curve, though single readings can be large or run the other way.
Reply using exactly one outcome from active, inactive

Past entries and their recorded results:
{"columns": ["molecule", "assay-system", "answer-label"],
 "data": [
  ["COc1ccccc1N1CCNCC1", "Cytochrome P450 3A7 (Homo sapiens)", "inactive"],
  ["C=CCN1CC[C@]23c4c5ccc(O)c4O[C@H]2C(=O)CC[C@@]3(O)[C@H]1C5", "Cytochrome P450 3A7 (Homo sapiens)", "inactive"]
]}

Called result for CNC(C)(C)Cc1ccccc1 inactive

Called result for CN1CCN(C(=O)O[C@H]2c3nccnc3C(=O)N2c2ccc(Cl)cn2)CC1 inactive

###

biological target: Cytochrome P450 3A7 (Homo sapiens); test: Cytochrome P450 family 3 subfamily A member 7 (CYP3A7) small molecule antagonists: luciferase biochemical qHTS assay (AID 1963596); conditions: P450-Glo CYP3A7 enzyme luminescence, 1 h; series mostly up to 57.4 µM; further: nearly all actives have a fitted effect of over 40% in size
Inconclusive results are not listed. Calls of active or inactive are those of the source. Calls come from the whole dose curve; as a rule, active = well fitted inhibition curve with a large enough effect; inconclusive = small, poorly fitted or top-dose-only effect; inactive = no such curve, though single readings can be large or run the other way.
experimental-readout: outcome

# example entries with known answers
{"columns": ["molecule", "outcome"],
 "data": [
  ["CCC1(c2cccc(O)c2)CCCCN(C)C1 (centres undefined)", "inactive"],
  ["O=C(N[C@@H]1N=C(c2ccccc2F)c2cccc3c2N(CC3)C1=O)c1cc2ccccc2[nH]1", "inactive"],
  ["c1ccc2c(c1)sc1ccccc12", "inactive"],
  ["CCCCCCC(=O)CCCCCC/C=C/C[C@@H](O)[C@H](O)[C@@](N)(CO)C(=O)O", "inactive"]
]}

Lab note: each molecule below needs its outcome filled in.
1. c1cc2c(c(N3CCNCC3)c1)OCCO2
2. O=[As]O[As]=O (centres undefined)

inactive
inactive

###

test: Quantitative highthroughput screen to assess conditional lethalithy of SEM cells grown in RPMI1640 with dialyzed fetal bovine serum (RPMI+ds) (AID 1963884); conditions: SEM B-ALL cells, RPMI+dialyzed FBS, CellTiter-Glo viability, 48 h; series mostly up to 45.8 µM; further: nearly all actives have a fitted effect of over 35% in size
Inconclusive results are not listed. The source made the active and inactive calls. Calls come from the whole dose curve; as a rule, active = well fitted cell-killing curve with a large enough effect; inconclusive = small, poorly fitted or top-dose-only effect, or effect the other way; inactive = no such curve, though single readings can be large or run the other way.
experimental-readout: outcome

{"columns": ["compound", "outcome"],
 "data": [
  ["O=C1CCC[C@@H]2[C@H]3CCCN4CCC[C@@H](CN12)[C@@H]34", "inactive"],
  ["NC1CC1c1ccccc1 (centres undefined)", "inactive"],
  ["CCN(CC)C(=O)c1ccc(C2=CC3(CCNCC3)Oc3cccc(O)c32)cc1", "inactive"],
  ["C[C@]12CCC(=O)C(O)=C1CC[C@@H]1[C@H]3CCC(=O)[C@@]3(C)CC[C@@H]12", "inactive"],
  ["O=C(O)c1nn(Cc2ccc(Cl)cc2Cl)c2ccccc12", "inactive"],
  ["C[C@]12CCC(=O)C=C1CC[C@@H]1[C@H]3CC[C@](C)(O)[C@@]3(C)CC[C@@H]12", "inactive"]
]}

Lab note: each compound below needs its outcome filled in.
1. COc1cc2cc(c1Cl)N(C)C(=O)C[C@H](OC(=O)C(C)C)[C@]1(C)O[C@H]1[C@H](C)[C@@H]1C[C@@](O)(NC(=O)O1)[C@H](OC)C=CC=C(C)C2
2. C[C@]12CC[C@H]3[C@@H](CCC4=CC(=O)CC[C@@]43C)[C@H]1CC[C@H]2OC(=O)CCC1CCCC1
3. c1ccc2c(CN3CCNCC3)cccc2c1

1: inactive; 2: inactive; 3: inactive
